Where do these numbers come from? They come from ChEMBL document CHEMBL1772954.

tested on: Aspergillus niger; experiment: Antifungal activity against Aspergillus niger ATCC 9029; format: functional
Reported MIC values for a set of molecules
observed-property: MIC (µg/mL)

molecule=Cc1ccc(N2C(=O)C=CC2=O)cc1 observed_property=MIC unit_of_measurement=µg/mL prefix_operator== result_number=15.6
molecule="O=C1C=CC(O)N1Cc1ccccc1 (configuration not stated)" observed_property=MIC unit_of_measurement=µg/mL prefix_operator=> result_number=250
molecule="CC1=CC(=O)N(c2ccccc2)C1O (configuration not stated)" observed_property=MIC unit_of_measurement=µg/mL prefix_operator=> result_number=250
molecule="CCN1C(=O)C=CC1=O [N-ETHYLMALEIMIDE]" observed_property=MIC unit_of_measurement=µg/mL prefix_operator== result_number=7.81
molecule=CC1=CC(=O)N(c2ccccc2)C1=O observed_property=MIC unit_of_measurement=µg/mL prefix_operator== result_number=125
molecule="CC(=O)N1CCN(c2ccc(OCC3COC(Cn4ccnc4)(c4ccc(Cl)cc4Cl)O3)cc2)CC1 (configuration not stated)" observed_property=MIC unit_of_measurement=µg/mL prefix_operator== result_number=0.24
molecule="O=C1C=CC(O)N1CCc1ccccc1 (configuration not stated)" observed_property=MIC unit_of_measurement=µg/mL prefix_operator=> result_number=250

* * *

tested on: Cryptococcus neoformans; experiment: Antifungal activity against Cryptococcus neoformans ATCC 32264; format: functional
Reported MFC values for a set of compounds
observed-property: MFC (µg/mL)

compound=O=C1CCC(=O)N1CCCc1ccccc1 unit_of_measurement=µg/mL prefix_operator=> result_number=250
compound="C[C@@H]1[C@H](O)[C@@H](C)/C=C/C=C/C=C/C=C/C=C/C=C/C=C/[C@H](O[C@@H]2O[C@H](C)[C@@H](O)[C@H](N)[C@@H]2O)C[C@@H]2O[C@](O)(C[C@@H](O)C[C@@H](O)[C@H](O)CC[C@@H](O)C[C@@H](O)CC(=O)O[C@H]1C)C[C@H](O)[C@H]2C(=O)O [AMPHOTERICIN B]" unit_of_measurement=µg/mL prefix_operator== result_number=0.97
compound=CC1=C(C)C(=O)N(c2ccccc2)C1=O unit_of_measurement=µg/mL prefix_operator== result_number=250
compound=O=C1C(c2ccccc2)=C(c2ccccc2)C(=O)N1CCCc1ccccc1 unit_of_measurement=µg/mL prefix_operator=> result_number=250
compound=O=C1C=CC(=O)N1CCCCc1ccccc1 unit_of_measurement=µg/mL prefix_operator== result_number=31.2
compound="O=C1C=CC(O)N1Cc1ccccc1 (stereo not given)" unit_of_measurement=µg/mL prefix_operator=> result_number=250
compound="O=C1C=CC(O)N1CCc1ccccc1 (stereo not given)" unit_of_measurement=µg/mL prefix_operator=> result_number=250
compound=O=C1C(Cl)=C(Cl)C(=O)N1CCc1ccccc1 unit_of_measurement=µg/mL prefix_operator== result_number=7.81
compound=O=C1C(Cl)=C(Cl)C(=O)N1CCCCc1ccccc1 unit_of_measurement=µg/mL prefix_operator== result_number=3.9
compound="CC1=CC(O)N(c2ccccc2)C1=O (stereo not given)" unit_of_measurement=µg/mL prefix_operator=> result_number=250

* * *

Reported MFC values for a set of compounds
tested on: Aspergillus niger; assay: Antifungal activity against Aspergillus niger ATCC 9029; assay type: functional
observed-property: MFC (µg/mL)

compound="CC1=CC(=O)N(c2ccccc2)C1O (centres undefined)" tested_target="Aspergillus niger" observed_property=MFC unit_of_measurement=µg/mL prefix_operator=> result_number=250
compound=O=C1C=CC(=O)N1c1ccccc1 tested_target="Aspergillus niger" observed_property=MFC unit_of_measurement=µg/mL prefix_operator== result_number=62.5
compound="O=C1C=CC(O)N1Cc1ccccc1 (centres undefined)" tested_target="Aspergillus niger" observed_property=MFC unit_of_measurement=µg/mL prefix_operator=> result_number=250
compound=CC1=C(C)C(=O)N(CCCc2ccccc2)C1=O tested_target="Aspergillus niger" observed_property=MFC unit_of_measurement=µg/mL prefix_operator=> result_number=250
compound=CCCCN1C(=O)C=CC1=O tested_target="Aspergillus niger" observed_property=MFC unit_of_measurement=µg/mL prefix_operator== result_number=3.9
compound=O=C1C(Cl)=C(Cl)C(=O)N1c1ccccc1 tested_target="Aspergillus niger" observed_property=MFC unit_of_measurement=µg/mL prefix_operator=> result_number=250
compound=O=C1C=CC(=O)N1c1ccc(Br)cc1 tested_target="Aspergillus niger" observed_property=MFC unit_of_measurement=µg/mL prefix_operator== result_number=62.5
compound=O=C1C=CC(=O)N1c1ccc2c(c1)OCO2 tested_target="Aspergillus niger" observed_property=MFC unit_of_measurement=µg/mL prefix_operator== result_number=125
compound=O=C1C=CC(=O)N1c1ccc(F)cc1F tested_target="Aspergillus niger" observed_property=MFC unit_of_measurement=µg/mL prefix_operator== result_number=31.2
compound=O=C1CCC(=O)N1CCCCc1ccccc1 tested_target="Aspergillus niger" observed_property=MFC unit_of_measurement=µg/mL prefix_operator=> result_number=250
compound=O=C1C(c2ccccc2)=C(c2ccccc2)C(=O)N1c1ccccc1 tested_target="Aspergillus niger" observed_property=MFC unit_of_measurement=µg/mL prefix_operator=> result_number=250
compound=CCCN1C(=O)C=CC1=O tested_target="Aspergillus niger" observed_property=MFC unit_of_measurement=µg/mL prefix_operator== result_number=15.6
compound="C[C@@H]1[C@H](O)[C@@H](C)/C=C/C=C/C=C/C=C/C=C/C=C/C=C/[C@H](O[C@@H]2O[C@H](C)[C@@H](O)[C@H](N)[C@@H]2O)C[C@@H]2O[C@](O)(C[C@@H](O)C[C@@H](O)[C@H](O)CC[C@@H](O)C[C@@H](O)CC(=O)O[C@H]1C)C[C@H](O)[C@H]2C(=O)O [AMPHOTERICIN B]" tested_target="Aspergillus niger" observed_property=MFC unit_of_measurement=µg/mL prefix_operator== result_number=3.9
compound=O=C1C(Cl)=C(Cl)C(=O)N1CCCCc1ccccc1 tested_target="Aspergillus niger" observed_property=MFC unit_of_measurement=µg/mL prefix_operator== result_number=15.6
compound=O=C(O)/C=C\C(=O)NCCCCc1ccccc1 tested_target="Aspergillus niger" observed_property=MFC unit_of_measurement=µg/mL prefix_operator=> result_number=250
compound="CC1=CC(O)N(CCCc2ccccc2)C1=O (centres undefined)" tested_target="Aspergillus niger" observed_property=MFC unit_of_measurement=µg/mL prefix_operator=> result_number=250
compound="CC(=O)N1CCN(c2ccc(OCC3COC(Cn4ccnc4)(c4ccc(Cl)cc4Cl)O3)cc2)CC1 (centres undefined) [KETOCONAZOLE]" tested_target="Aspergillus niger" observed_property=MFC unit_of_measurement=µg/mL prefix_operator== result_number=1.95
compound=Cc1ccc(N2C(=O)C=CC2=O)cc1 tested_target="Aspergillus niger" observed_property=MFC unit_of_measurement=µg/mL prefix_operator== result_number=31.2
compound=COc1ccc(N2C(=O)C=CC2=O)c(OC)c1 tested_target="Aspergillus niger" observed_property=MFC unit_of_measurement=µg/mL prefix_operator== result_number=62.5
compound=O=C(O)/C=C\C(=O)Nc1ccccc1 tested_target="Aspergillus niger" observed_property=MFC unit_of_measurement=µg/mL prefix_operator=> result_number=250
compound=O=C1C(c2ccccc2)=C(c2ccccc2)C(=O)N1CCCc1ccccc1 tested_target="Aspergillus niger" observed_property=MFC unit_of_measurement=µg/mL prefix_operator=> result_number=250
compound=CC(C)(C)c1ccccc1N1C(=O)C=CC1=O tested_target="Aspergillus niger" observed_property=MFC unit_of_measurement=µg/mL prefix_operator== result_number=125
compound="CC1=CC(O)N(Cc2ccccc2)C1=O (centres undefined)" tested_target="Aspergillus niger" observed_property=MFC unit_of_measurement=µg/mL prefix_operator=> result_number=250
compound="CC1=CC(=O)N(Cc2ccccc2)C1O (centres undefined)" tested_target="Aspergillus niger" observed_property=MFC unit_of_measurement=µg/mL prefix_operator=> result_number=250
